# System: CEM cells HIV-1 protection, formazan growth assay
# METHOD: NCI AIDS Antiviral Assay
# MEASUREMENT_PARAMETERS: measured here: growth of uninfected CEM cells
// thresholds for IC50 classes: low bin: < 7 µM; mid bin: ≥ 7 µM and < 40 µM; high bin: ≥ 40 µM

State the class of the compound shown: CN(C)CCNc1c2ccccc2nc2cccc([N+](=O)[O-])c12
low bin

Kindly state the category for this compound: COC(=O)NC(=O)c1cn(C2CCCCC2)c(=O)[nH]c1=O
high bin

Record CCOP(=S)(Nc1cccc(C(F)(F)F)c1)OCC — which class?
high bin

Determine which band this compound sits in: O=C(NCCCNCCCCNCCCNC(=O)c1cc(-c2ccccc2)nc2ccccc12)c1cc(-c2ccccc2)nc2ccccc12
low bin

Consider CCCCn1c(=O)[nH]c2c(N)ncnc21 . To which IC50 class does it belong?
high bin

Please report the category associated with Cc1ccc(/C=N/Nc2ccccn2)s1 , nothing else.
high bin

Record CC(=O)n1nc(-c2ccc3ccccc3c2)nc1C — which class?
high bin

In plain terms, what class is CN1c2ccccc2NC(CC(=O)O)C2CC=CN21 (stereo not drawn) ?
high bin

For the record C=CCOC(=O)C1(C)C(=O)CCC1CC/C=C/C(C)=O (stereo not drawn) , report the class its IC50 corresponds to.
low bin

Given O=C(/C=C/c1cccnc1)c1ccccc1 , name the class its IC50 places it in.
mid bin

Sort into band: O=c1c2c(oc3ccccc13)-c1ccccc1OC2
high bin

Assign a bin to NC(CC(=O)O)C(=O)NC1Cc2ccccc2C1=O (stereo not drawn)
high bin

Given COc1cccc(CCn2c(N)c(-c3cc(Cl)cc(Cl)c3)c3ccc([N+](=O)[O-])cc3c2=O)c1 , name the class its IC50 places it in.
low bin

Band assignment needed for CCC(=O)c1c(NOC2OC(COC(C)=O)C(OC(C)=O)C(OC(C)=O)C2OC(C)=O)nc(OC)n(C)c1=O (stereo not drawn) please.
high bin

# classify by IC50 band: Nc1c(-c2nc3ccccc3s2)c2ccc([N+](=O)[O-])cc2c(=O)n1-c1cccc(C(=O)O)c1
mid bin

Which IC50 band matches CC#CCCC1(C)CCCCN(C(=O)OC(C)C)C1OCC (stereo not drawn) ?
high bin

Sort into band: COC1(OC)CCC2C1C1CCC(OC)(OC)C21 (stereo not drawn)
high bin

For this compound, which bin applies? Cc1ccccc1[P+](Cc1ccccc1)(c1ccccc1C)c1ccccc1C
low bin

Class? Entry: O=C(O)CC(Cc1ccc2c(c1)OCO2)C(=O)O (stereo not drawn)
high bin

Form: Item = C#CCNC(=O)NC(CCCCNC(=O)OCc1ccccc1)C(=O)OCc1ccccc1 (stereo not drawn) ; Class = ?
high bin

Input O=C(C1OC1c1ccc([N+](=O)[O-])cc1)C12CC3CC(CC(C3)C1)C2 (stereo not drawn) ; output its category
mid bin

Which class is correct for the following compound? S=C1SC(=Nc2ccccc2)C(=Nc2ccccc2)N1c1ccc2ccccc2c1
mid bin

Please let me know in which category the item CCN(CC)c1ccc2cc(C(=O)Nc3ccccc3)c(=N)oc2c1 belongs.
high bin

Kindly state the category for this compound: CCNC(=S)NNC(=O)c1csc(NC(=S)NC2CCCCC2)n1
low bin

Class? Entry: CC1=NN(C(=O)CC(=O)Nc2ccc(C)cc2)C(=O)C1N=Nc1ccc(S(=O)(=O)c2ccc(N=NC3C(=O)N(C(=O)CC(=O)Nc4ccc(C)cc4)N=C3C)cc2)cc1 (stereo not drawn)
high bin

Hello team, could you let me know which band the following compound falls into: O=S(=O)(O)c1c(Cl)c(Cl)c(O)c2ncccc12
low bin

Class label required: N#C/C(C(=O)Nc1ccc(Cl)cc1)=C(/N)N1CCOCC1
high bin

Classify this compound: O=C(CN1CCCCC1)c1ccc2c(c1)Sc1ccccc1O2
low bin

Input COC(=O)C1=C(O)C(C(=O)OC)[C@]2(O)[C@@H](C(=O)OC)[C@H]1C[C@@H](c1ccccc1)[C@@H]2C(=O)OC (stereo partly drawn) ; output its category
mid bin

Hi there! Could you help me figure out the category for O=C(CCCN1CCC2(CC1)C(=NC1CCCCC1)NC(=O)N2c1ccccc1)c1ccc(F)cc1 please?
high bin

Using the reported IC50, which band applies to CCCC#CC(O)(C(=O)OC1CCN(C)CC1)C1CCCCC1 (stereo not drawn) ?
high bin

Bin? [N-]=[N+]=CC(=O)C1CCCN1C(=O)c1ccccc1 (stereo not drawn)
high bin

Any idea which band CC1CCCOc2ccc(cc2)C=Nc2ccc(cc2)CCc2ccc(cc2)N=Cc2ccc(cc2)OCCC1 (stereo not drawn) is in?
high bin

# classify by IC50 band: Cc1ncc(CO)c(CO)c1OCC(O)CN1CCN(c2ccc(F)cc2)CC1 (stereo not drawn)
high bin

Pick a category. Item: COc1cc(-c2c(C)c(C)nc(OC)c2C#N)cc(OC)c1OC
high bin

Given CC1=NN(c2ccccc2)C(=O)C1C(=O)C(=O)Nc1ccc(C)cc1C (stereo not drawn) , name the class its IC50 places it in.
high bin

Which category does the recorded IC50 put CC1=CC(C)(C)[C@H]2O[C@@]3(O)C[C@]4(C)[C@H]5C[C@@](C(C)C)(O[C@H]4c4ccoc4)O[C@H]4[C@]5(C3)O[C@@]1(O)[C@]24O in?
high bin

Returns: class label. Input: CC(C)(O)CCCC1CCC2C3CCC4CCCCC4(C)C3CCC2(C)C1O (stereo not drawn)
mid bin

For this compound, which bin applies? O=C1/C(=C/c2ccc(Br)s2)NC(=S)N1CN1CCOCC1
mid bin
